EXPERIMENT SUMMARY: CCTE_Padilla_ZF_144hpf_TERATOSCORE: (Legacy) CCTE's 144 Hour Post-fertilization zebrafish Assay Teratoscore, Padilla Lab (AID 2283679)
Calls of active or inactive are those of the source. How the source made its calls: active means hit-call score of the fitted dose curve at least 0.9, where 1 is the maximum; inactive means score below 0.9.
# output must be one of true (1) = active, false (0) = inactive

Example entries and their recorded answers appear below.
COMPOUND: COCc1cnc(C2=NC(C)(C(C)C)C(=O)N2)c(C(=O)O)c1 (stereo unspecified)
DISCRETE LABEL: true (1)

COMPOUND: O=c1n(Cl)c(=O)n(Cl)c(=O)n1Cl
DISCRETE LABEL: false (0)

COMPOUND: CN=C=S
DISCRETE LABEL: true (1)

COMPOUND: CCC(C)n1c(=O)[nH]c(C)c(Br)c1=O (stereo unspecified)
DISCRETE LABEL: false (0)

Q: Dear all, I need the recorded test outcome for `Cc1c(COC(=O)[C@@H]2[C@H](/C=C(\Cl)C(F)(F)F)C2(C)C)cccc1-c1ccccc1` , thank you.
Ans: true (1)

Q: Dear all, I need the recorded test outcome for CC(C)C1(C)N=C(c2ncccc2C(=O)O)NC1=O (stereo unspecified) , thank you.
Ans: false (0)

Q: Dear all, I need the recorded test outcome for `CC1(C)CON(Cc2ccccc2Cl)C1=O` , thank you.
Ans: false (0)

Q: Dear all, I need the recorded test outcome for `COP(=S)(OC)SCn1nnc2ccccc2c1=O` , thank you.
Ans: true (1)

Q: Dear all, I need the recorded test outcome for `COC(=O)NS(=O)(=O)c1ccc(N)cc1` , thank you.
Ans: false (0)

Q: Dear all, I need the recorded test outcome for `N#Cc1c[nH]cc1-c1cccc2c1OC(F)(F)O2` , thank you.
Ans: true (1)

Q: Dear all, I need the recorded test outcome for `OC(c1ccc(Cl)cc1)(c1ccc(Cl)cc1)C(Cl)(Cl)Cl` , thank you.
Ans: true (1)

Q: Dear all, I need the recorded test outcome for `CS(=O)(=O)c1cc(C(F)(F)F)ccc1C(=O)c1cnoc1C1CC1` , thank you.
Ans: false (0)
